Conditions: in acetone, 313.15 K
value-type: solubility (mole fraction)

[[record]]
compound = "C[C@@H](O)[C@H]1C(=O)N2C(C(=O)[O-])=C(SC3Cn4cnc[n+]4C3)[C@H](C)[C@H]12 (stereo partly specified)"
value_observed = "1.06e-05"


---

Conditions: in methanol, 323.15 K
value-type: solubility (mole fraction)

[[record]]
compound = "C[C@@H](O)[C@H]1C(=O)N2C(C(=O)[O-])=C(SC3Cn4cnc[n+]4C3)[C@H](C)[C@H]12 (stereo partly specified)"
value_observed = "6.61e-05"


---

Conditions: in isopropanol, 288.15 K
value-type: solubility (mole fraction)

[[record]]
compound = "C[C@@H](O)[C@H]1C(=O)N2C(C(=O)[O-])=C(SC3Cn4cnc[n+]4C3)[C@H](C)[C@H]12 (stereo partly specified)"
value_observed = "8.24e-06"


---

Details: in DMSO, 313.15 K
value-type: solubility (mole fraction)

[[record]]
compound = "C[C@@H](O)[C@H]1C(=O)N2C(C(=O)[O-])=C(SC3Cn4cnc[n+]4C3)[C@H](C)[C@H]12 (stereo partly specified)"
value_type = "solubility (mole fraction)"
value_observed = 0.000116


---

Details: in DMF, 323.15 K
value-type: solubility (mole fraction)

[[record]]
compound = "C[C@@H](O)[C@H]1C(=O)N2C(C(=O)[O-])=C(SC3Cn4cnc[n+]4C3)[C@H](C)[C@H]12 (stereo partly specified)"
value_type = "solubility (mole fraction)"
value_observed = 0.000131


---

Conditions: in n-propanol, 298.15 K
value-type: solubility (mole fraction)

[[record]]
compound = "C[C@@H](O)[C@H]1C(=O)N2C(C(=O)[O-])=C(SC3Cn4cnc[n+]4C3)[C@H](C)[C@H]12 (stereo partly specified)"
value_observed = "1.97e-05"


---

Conditions: in DMF, 318.15 K
value-type: solubility (mole fraction)

[[record]]
molecule = "C[C@@H](O)[C@H]1C(=O)N2C(C(=O)[O-])=C(SC3Cn4cnc[n+]4C3)[C@H](C)[C@H]12 (stereo partly specified)"
value_observed = 0.000119


---

Settings: in DMSO, 323.15 K
value-type: solubility (mole fraction)

[[record]]
compound = "C[C@@H](O)[C@H]1C(=O)N2C(C(=O)[O-])=C(SC3Cn4cnc[n+]4C3)[C@H](C)[C@H]12 (stereo partly specified)"
value_observed = 0.000142


---

Settings: in acetonitrile, 318.15 K
value-type: solubility (mole fraction)

[[record]]
compound = "C[C@@H](O)[C@H]1C(=O)N2C(C(=O)[O-])=C(SC3Cn4cnc[n+]4C3)[C@H](C)[C@H]12 (stereo partly specified)"
value_observed = "8.5e-05"


---

Details: in methanol, 318.15 K
value-type: solubility (mole fraction)

[[record]]
molecule = "C[C@@H](O)[C@H]1C(=O)N2C(C(=O)[O-])=C(SC3Cn4cnc[n+]4C3)[C@H](C)[C@H]12 (stereo partly specified)"
value_observed = "5.63e-05"


---

Details: in acetone, 323.15 K
value-type: solubility (mole fraction)

[[record]]
compound = "C[C@@H](O)[C@H]1C(=O)N2C(C(=O)[O-])=C(SC3Cn4cnc[n+]4C3)[C@H](C)[C@H]12 (stereo partly specified)"
value_observed = "1.79e-05"


---

Settings: in n-propanol, 293.15 K
value-type: solubility (mole fraction)

[[record]]
compound = "C[C@@H](O)[C@H]1C(=O)N2C(C(=O)[O-])=C(SC3Cn4cnc[n+]4C3)[C@H](C)[C@H]12 (stereo partly specified)"
value_type = "solubility (mole fraction)"
value_observed = "1.62e-05"

